Target: Alpha-2A adrenergic receptor (Homo sapiens, UniProt P08913)
Sequence (P08913 whole entry): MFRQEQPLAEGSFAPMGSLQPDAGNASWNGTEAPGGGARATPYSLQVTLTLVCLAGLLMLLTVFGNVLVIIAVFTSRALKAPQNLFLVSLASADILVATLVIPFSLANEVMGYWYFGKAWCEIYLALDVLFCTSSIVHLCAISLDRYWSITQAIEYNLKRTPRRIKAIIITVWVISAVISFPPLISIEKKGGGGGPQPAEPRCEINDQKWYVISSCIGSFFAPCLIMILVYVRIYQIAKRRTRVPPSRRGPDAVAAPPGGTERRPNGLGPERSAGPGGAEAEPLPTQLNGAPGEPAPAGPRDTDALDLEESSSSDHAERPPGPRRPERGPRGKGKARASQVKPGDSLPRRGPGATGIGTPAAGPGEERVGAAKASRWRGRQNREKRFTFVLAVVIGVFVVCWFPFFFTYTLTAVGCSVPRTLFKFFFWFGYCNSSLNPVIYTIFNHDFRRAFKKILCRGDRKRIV
Assay: Inhibitory activity against alpha-2A adrenergic receptor by using [3H]MK-912 as radioligand expressed in COS-1 cells
pIC50: −log10 of the molar value.
Decide using pIC50: a value greater than or equal to 7 is 1.0, a smaller one is 0.0.

pIC50 >= 7 for `CN(C)c1nc(N[C@H]2CC[C@@H](NC(=O)c3ccc(F)c(F)c3F)CC2)nc2ccccc12` ? 0.0

pIC50 >= 7 for CN(C)c1nc(NC2CCC(CNCc3ccc(Br)cc3OC(F)(F)F)CC2)nc2ccccc12 (cis isomer) ? 0.0

pIC50 >= 7 for `CN(C)c1nc(N[C@H]2CC[C@@H](NS(=O)(=O)c3ccc(Br)cc3OC(F)(F)F)CC2)nc2ccccc12` ? 1.0
